AIRE transcriptional activation functional score reference
B1: library; numbered along this chain (parent)
chain: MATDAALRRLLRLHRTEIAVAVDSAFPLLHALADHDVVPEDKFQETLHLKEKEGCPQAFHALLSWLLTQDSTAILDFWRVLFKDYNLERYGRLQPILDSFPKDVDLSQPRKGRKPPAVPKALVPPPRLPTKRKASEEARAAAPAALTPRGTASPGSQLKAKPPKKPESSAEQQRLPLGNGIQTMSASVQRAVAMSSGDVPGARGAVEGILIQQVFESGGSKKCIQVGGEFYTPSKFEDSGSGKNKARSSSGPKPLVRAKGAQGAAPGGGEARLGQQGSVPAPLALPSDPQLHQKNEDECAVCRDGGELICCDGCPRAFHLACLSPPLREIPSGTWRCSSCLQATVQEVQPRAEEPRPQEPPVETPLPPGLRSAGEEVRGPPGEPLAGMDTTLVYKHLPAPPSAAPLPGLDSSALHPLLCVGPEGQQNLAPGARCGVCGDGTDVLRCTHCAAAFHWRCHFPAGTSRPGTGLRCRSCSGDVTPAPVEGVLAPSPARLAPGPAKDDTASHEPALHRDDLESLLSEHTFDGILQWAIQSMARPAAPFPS

variants of: B1; test: AIRE transcriptional activation functional score (insulin promoter-GFP; nonsense median 0, synonymous median 1) (normalised score); higher = higher AIRE activity (more reporter activation); conditions: with insulin promoter-GFP reporter in HEK293
readoutKind: AIRE transcriptional activation functional score

variantspec=E237G reported=1.06
variantspec=R139A reported=-0.0134
variantspec=T68E reported=-2.1
variantspec=T364Y reported=1.11
variantspec=R110Y reported=1.61
variantspec=A73P reported=0.676
variantspec=Y394S reported=0.848
variantspec=G277I reported=1.24
variantspec=C55F reported=0.897
variantspec=K235W reported=1.15
variantspec=P398F reported=1.43
variantspec=E270R reported=0.723
variantspec=H396A reported=0.663
